These data points were gathered from ChEMBL document CHEMBL1926659.

Molecular target: Casein kinase II subunit alpha (Homo sapiens, UniProt P68400)
Sequence (P68400 whole entry): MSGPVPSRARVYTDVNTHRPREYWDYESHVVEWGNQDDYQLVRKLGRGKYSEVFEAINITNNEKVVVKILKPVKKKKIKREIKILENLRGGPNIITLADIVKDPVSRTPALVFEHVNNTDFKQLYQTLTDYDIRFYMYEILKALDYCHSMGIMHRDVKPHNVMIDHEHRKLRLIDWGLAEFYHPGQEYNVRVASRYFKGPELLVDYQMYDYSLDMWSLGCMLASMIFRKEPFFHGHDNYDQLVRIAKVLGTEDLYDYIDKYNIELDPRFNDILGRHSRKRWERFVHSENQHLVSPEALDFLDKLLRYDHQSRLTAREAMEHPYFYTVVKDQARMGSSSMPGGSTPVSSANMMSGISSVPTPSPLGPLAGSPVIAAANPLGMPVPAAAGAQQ
Experiment: Inhibition of human CK2 alpha catalytic subunit expressed in Escherichia coli BL21 (DE3) assessed as [32P]gamma-ATP incorporation into P2B substrate after 15 mins by scintillation counting
MEASUREMENT TYPE: pKi
Scale explanation: pKi corresponds to minus log10 of a concentration expressed in moles per litre.

CHEMICAL SMILES	SYSTEM	MEASUREMENT TYPE	RECORDED VALUE
Ic1c(I)c(I)c2[nH]cnc2c1I	Casein kinase II subunit alpha (Homo sapiens, UniProt P68400)	pKi	6.58

Request: Fill in: pKi of Cn1c(SCCCC(=O)O)nc2c(Br)c(Br)c(Br)c(Br)c21 is ___
Result: 7.06

Request: For O=C(O)Cn1cnc2c(I)c(I)c(I)c(I)c21 , what is its reported pKi?
Result: 6.42

Request: Which pKi is listed for O=C(O)CCCn1cnc2c(Br)c(Br)c(Br)c(Br)c21 ?
Result: 6.33

Request: Using the record for CN(C)c1nc2c(Br)c(Br)c(Br)c(Br)c2n1CC(=O)O , report its pKi.
Result: 7.06
